All figures here come from patent US11986471B2.

Each entry below lists one item and its recorded pIC50 value.
Biological target: PRMT5 (Homo sapiens)
Construct: purchased Viva (custom protein)
Sequence (O14744 whole entry): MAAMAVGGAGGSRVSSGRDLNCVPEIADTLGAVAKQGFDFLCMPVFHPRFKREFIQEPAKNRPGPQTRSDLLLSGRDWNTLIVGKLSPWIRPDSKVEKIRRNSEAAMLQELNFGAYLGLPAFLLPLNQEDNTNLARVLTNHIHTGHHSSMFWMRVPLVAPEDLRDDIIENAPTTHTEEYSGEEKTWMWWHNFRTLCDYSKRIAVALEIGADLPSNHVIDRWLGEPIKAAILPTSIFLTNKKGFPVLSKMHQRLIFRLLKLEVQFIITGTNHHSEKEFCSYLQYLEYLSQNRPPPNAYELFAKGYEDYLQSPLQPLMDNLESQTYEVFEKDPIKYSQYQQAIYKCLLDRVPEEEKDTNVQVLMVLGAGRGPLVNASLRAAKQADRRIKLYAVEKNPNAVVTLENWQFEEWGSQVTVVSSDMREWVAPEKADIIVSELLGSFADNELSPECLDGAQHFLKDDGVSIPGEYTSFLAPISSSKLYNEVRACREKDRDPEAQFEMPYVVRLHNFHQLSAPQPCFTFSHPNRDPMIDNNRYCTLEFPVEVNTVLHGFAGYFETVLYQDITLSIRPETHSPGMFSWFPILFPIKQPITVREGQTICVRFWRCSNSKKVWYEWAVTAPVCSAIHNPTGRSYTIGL
Sequence (Q9BQA1 whole entry partner): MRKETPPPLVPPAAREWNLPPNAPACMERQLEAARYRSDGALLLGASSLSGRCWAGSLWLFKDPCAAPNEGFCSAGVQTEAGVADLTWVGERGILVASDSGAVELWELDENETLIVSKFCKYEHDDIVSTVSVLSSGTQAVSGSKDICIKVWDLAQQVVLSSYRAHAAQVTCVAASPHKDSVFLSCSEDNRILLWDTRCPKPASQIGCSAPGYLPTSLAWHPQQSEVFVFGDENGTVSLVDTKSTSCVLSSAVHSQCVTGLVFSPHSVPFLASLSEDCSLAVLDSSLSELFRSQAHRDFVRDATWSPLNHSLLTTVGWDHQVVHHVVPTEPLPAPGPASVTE
Experiment: PRMT5 IC50 assay in the presence of MTA as cofactor
Format: biochemical
Settings: PRMT5, MTA as cofactor
pIC50: −log10 of the molar value.

Molecule	pIC50
O=C(NC[C@H](O)CN1CCc2c(ccc(OCc3cnco3)c2Cl)C1)c1ccnc(NC2CCC2)c1	6.30 to 7.30
CC(=O)N1CC(Nc2cc(C(=O)NC[C@H](O)CN3CCc4cc(OCc5cnco5)ccc4C3)nc(N3CCOCC3)n2)C1	6.30 to 7.30
Cc1c(OCc2cnco2)ccc2c1CCN(C[C@@H](O)CNC(=O)c1cc(NC3CCC3)ccn1)C2	6.30 to 7.30
CCN(C)c1cc(C(=O)NC[C@H](O)CN2CCc3cc(OCc4cnco4)ccc3C2)cc(NC2CCC2)n1	6.30 to 7.30
CC(=O)N1CC(Nc2cc(C(=O)NC[C@H](O)CN3CCc4cc(OCc5cnco5)ccc4C3)nc(N3CCCCC3)n2)C1	> 7.30
O=C(NC[C@H](O)CN1CCc2c(ccc(OCc3cnco3)c2Cl)C1)c1ccc(OC2CCN(Cc3ccncc3)CC2)cc1	6.30 to 7.30
CC(=O)N1CC(Nc2cc(C(=O)NC[C@H](O)CN3CCc4c(ccc(OCc5cnco5)c4Cl)C3)nc(C(C)C)n2)C1	6.30 to 7.30
CC(=O)N1CC(Nc2cc(C(=O)NCC(O)CN3CCc4nc(OCc5ocnc5C)ccc4C3)nc(N3CCCCC3)n2)C1 (stereo not shown)	6.30 to 7.30
Cc1c(OCc2cnco2)ccc2c1CCN(C[C@@H](O)CNC(=O)c1cc(N[C@H]3C[C@H](C(=O)N4CCC4)C3)ncn1)C2	5.30 to 6.30
O=C(NC[C@H](O)CN1CCc2cc(OCc3cnco3)ccc2C1)c1cccc(NC2CCC2)c1	5.30 to 6.30
CCCN(C)c1cc(C(=O)NC[C@H](O)CN2CCc3c(ccc(OCc4cnco4)c3Cl)C2)cc(NC2CCC2)n1	5.30 to 6.30
CCCC(=O)N1CC(Nc2cc(C(=O)NC[C@H](O)CN3CCc4cc(OCc5cnco5)ccc4C3)ccn2)C1	6.30 to 7.30
CC(=O)N1CCC(Nc2cc(C(=O)NC[C@H](O)CN3CCc4c(ccc(OCc5cnco5)c4Cl)C3)ncn2)CC1	6.30 to 7.30
CCC(=O)N1CC(Nc2cc(C(=O)NC[C@H](O)CN3CCc4c(ccc(OCc5cnco5)c4C)C3)ccn2)C1	6.30 to 7.30
Cc1c(OCc2cnco2)ccc2c1CCN(C[C@@H](O)CNC(=O)c1cccc(NC3CCOCC3)c1)C2	5.30 to 6.30
O=C(NC[C@H](O)CN1CCc2c(ccc(OCc3cnco3)c2Cl)C1)c1ccnc(NC2CC(C(F)F)C2)c1 (stereo partly shown)	6.30 to 7.30
CC(C)C(=O)N1CCN(c2cc(C(=O)NC[C@H](O)CN3CCc4cc(OCc5cnco5)ccc4C3)cc(NC3CCC3)n2)CC1	6.30 to 7.30
Cc1c(OCc2cnco2)ccc2c1CCN(C[C@@H](O)CNC(=O)c1ccnc(Nc3cccnc3)c1)C2	5.30 to 6.30
O=C(NC[C@H](O)CN1CCc2c(ccc(OCc3cnco3)c2Br)C1)c1cc(NC2CCCCC2)ncn1	5.30 to 6.30
CC(=O)N1CC(Nc2cc(C(=O)NC[C@H](O)CN3CCc4c(ccc(OCc5ocnc5C)c4C)C3)nc(C(C)C)n2)C1	6.30 to 7.30
O=C(NC[C@H](O)CN1CCc2c(ccc(OCc3cnco3)c2Br)C1)c1cc(NC2CCCC2)ncn1	5.30 to 6.30
CN1CCN(c2cc(C(=O)NC[C@H](O)CN3CCc4c(ccc(OCc5cnco5)c4Cl)C3)cc(NC3CCC3)n2)CC1	6.30 to 7.30
CC(=O)N1CCC(Nc2cc(C(=O)NC[C@H](O)CN3CCc4cc(OCc5cn[nH]c5)ccc4C3)ncn2)CC1	6.30 to 7.30
CC(C)(C)C(=O)N1CCC(Nc2cc(C(=O)NC[C@H](O)CN3CCc4cc(OCc5cnco5)ccc4C3)ccn2)CC1	6.30 to 7.30
Cc1c(OCc2cnco2)ccc2c1CCN(C[C@@H](O)CNC(=O)c1ccnc(NC3CN(C(=O)C4CCC4)C3)c1)C2	6.30 to 7.30
CC(=O)N1CC(Nc2cc(C(=O)NC[C@H](O)CN3CCc4cc(OCc5ocnc5C)ccc4C3)nc(C(C)C)n2)C1	6.30 to 7.30
O=C(NC[C@H](O)CN1CCc2nc(OCc3cnco3)ccc2C1)c1ccnc(NC2CCC2)c1	5.30 to 6.30
CC(=O)N1CCN(c2cc(C(=O)NC[C@H](O)CN3CCc4c(ccc(OCc5cnco5)c4Cl)C3)cc(NC3CCC3)n2)CC1	6.30 to 7.30
